System: DCAMKL3;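 note: kd values determined as follow-up on hits from a single-replicate KINOMEscan panel screen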
Construct: gene DCLK3
assay metric: Kd (nM)

* CC[C@@H]1CO[C@H](C(=O)Nc2ccccc2)CN1c1cc(-c2ccc3c(N)n[nH]c3c2)nc(NC)n1 [GSK2376236] | 570

---

System: PKAC-alpha;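 note: KINOMEscan kinase panel screen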
Construct: gene PRKACA
condition label: concentration: 1 μM, replicates: in singlicate; n = 1
assay metric: %Inh (%)

• Nc1nccc(-c2c(-c3ccc(F)cc3)ncn2C2CCN(Cc3ccccc3)CC2)n1 = 2
• Cc1ccc(NC(=O)Nc2ccccc2F)cc1-c1ccc(C(=O)Nc2ccncc2)cc1 = 46
• O=C(Nc1n[nH]c2nc(-c3cccs3)c(Br)cc12)C1CCCC1 = 0
• O=C(Nc1n[nH]c2cc(-c3ccsc3)ccc12)C1CC1 = 0
• O=c1cc(N2CCOCC2)nc2n(Cc3ccccc3F)ccn12 = 0
• NS(=O)(=O)c1cccc(N/C=C2\C(=O)Nc3ccc(S(=O)(=O)Cc4c(Cl)cccc4Cl)cc32)c1 = 0
• Cn1cncc1C(=O)NC1CCN(c2ccnc(Nc3ccc(F)cc3)n2)C1 (stereo not shown) = 0
• Fc1ccc(-c2nc[nH]c2-c2ccncc2)cc1 = 25
• Cn1cnc2c(N)ncnc21 = 0
• COc1ccc(Nc2nccc(-c3ccc(NC(=O)c4cc5cc(F)ccc5[nH]4)cc3)n2)cc1 = 0
• COC(=O)C(Cc1ccccc1)NC(=O)NC1CCN(c2ccnc(Nc3ccc(F)cc3)n2)C1 (stereo not shown) = 0
• Cc1ccc(-c2nc(Nc3ccncc3)c3ccccc3n2)s1 = 21
• COc1cc2ncnc(Nc3cccc(Br)c3)c2cc1OC.Cl = 0
• Fc1ccc(-c2nc3n(c2-c2ccncc2)CCS3)cc1 = 33
• Cc1c(Cn2c3ccccc3n3c(=O)cc(N4CCOCC4)nc23)cccc1C(F)(F)F = 0
• CCn1c(-c2c(N)noc2C)nc2cnccc21 = 0
• Cc1ccccc1-c1cc(-c2c[nH]nc2-c2ccccn2)ccn1 = 0
• COc1ccc2cc(-c3nc(-c4ccccc4C(C)C)[nH]c3-c3ccncc3)ccc2c1 = 0
• Cc1c(Cn2c(C)c(C)n3c(=O)cc(N4CCOCC4)nc23)cccc1C(F)(F)F = 0
• CS(=O)(=O)CCNCc1nc(-c2ccc3ncnc(Nc4ccc(OCc5ccccc5)c(Cl)c4)c3c2)cs1.Cl = 0
• O=C1NC(=O)C(c2ccc(Cl)cc2)=C1Nc1ccc(O)cc1 = 0
• CC(C)c1ccc(O)cc1Nc1ccnc2ccc(C(F)(F)F)cc12 = 0
• Cc1ccc(NC(=O)Nc2ccccc2)cc1-c1ccc(C(=O)Nc2ccncc2)cc1 = 29
• Cc1ccccc1Cn1ccn2c(=O)cc(N3CCOCC3)nc12 = 0
• COc1ccc(CSc2nnc(-c3ccc4ncsc4c3)o2)cc1C(F)(F)F = 0
• CSc1ccc(-c2nc3n(c2-c2ccncc2)CCC3)cc1 = 5
• CNc1cc(-c2ccc3c(N)n[nH]c3c2)nc(N)n1 = 8
• CCc1ccc(-c2ccc3c(c2)-c2n[nH]cc2S(=O)(=O)N3C)cc1 = 0
• Nc1ncnc2occ(-c3ccc4c(c3)CCN4C(=O)Cc3cc(F)ccc3F)c12 = 0
• CN1c2ccc(-c3ccc(C(N)=O)cc3)cc2-c2[nH]ncc2S1(=O)=O = 13
• O=C1NC(=O)C(c2ccc(Cl)cc2)=C1Nc1cccc(Cl)c1 = 3
• CNCc1ccc2nc(NC(=O)c3ccc(C(C)(C)C)cc3)cn2c1 = 0
• COc1nccc(-c2c(-c3ccc(F)cc3)ncn2CCCN2CCOCC2)n1 = 0
• COC(=O)c1cccc(NC(=O)NC2CCN(c3ccnc(Nc4ccc(F)cc4)n3)C2)c1 (stereo not shown) = 0
